Just for reference, patent US7285564B2 is where these values come from.

Biological target: hM2 muscarinic receptor subtype (Homo sapiens)
Sequence (P08172 1-466): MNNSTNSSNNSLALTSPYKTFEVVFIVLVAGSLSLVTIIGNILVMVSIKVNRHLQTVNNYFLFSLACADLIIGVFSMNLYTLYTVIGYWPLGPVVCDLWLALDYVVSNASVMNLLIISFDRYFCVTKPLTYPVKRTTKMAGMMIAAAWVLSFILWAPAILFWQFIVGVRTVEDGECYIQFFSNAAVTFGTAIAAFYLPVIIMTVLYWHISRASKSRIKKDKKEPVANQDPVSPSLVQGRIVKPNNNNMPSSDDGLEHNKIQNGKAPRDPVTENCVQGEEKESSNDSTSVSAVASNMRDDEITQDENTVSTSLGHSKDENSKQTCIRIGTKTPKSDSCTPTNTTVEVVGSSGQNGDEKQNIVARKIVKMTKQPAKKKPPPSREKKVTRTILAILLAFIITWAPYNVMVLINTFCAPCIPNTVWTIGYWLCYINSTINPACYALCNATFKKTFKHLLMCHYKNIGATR
pKi: −log10 of the molar value.
MEASURE: pKi

Tested on hM2 muscarinic receptor subtype (Homo sapiens), the item `COc1ccncc1CN1CCC(N(CCCCCCCN2CC[C@@H](C(C(N)=O)(c3ccccc3)c3ccccc3)C2)C(C)C)CC1` showed pKi equal to > 9.00
